- Assay method text: Cytotoxicity against human Huh7.5 cells assessed as reduction in cell viability after 3 days by MTT assay
- Format: cell-based
- Condition set: time 3 day
Readout type: CC50 at 72 h (µM)
Answer format: numeric, µM implied, no suffix.

Consider the following illustrative entries.
Compound | Measure unit | CC50 at 72 h
COc1ccc(C(C(=O)NC2CCCCC2)N(C(=O)Cc2c[nH]c3ccccc23)c2ccccc2)c(OC)c1OC (stereo not drawn) | µM | 18.8
COc1cc(C(C(=O)NC2CCCCC2)N(C(=O)Cc2c[nH]c3ccccc23)c2cccc3ccccc23)cc(OC)c1OC (stereo not drawn) | µM | 33.2
COc1ccc(C(C(=O)NC2CCCCC2)N(C(=O)Cc2c[nH]c3ccccc23)C2CCCCC2)cc1OC (stereo not drawn) | µM | 14.6

The compound listed as COc1ccc(C(C(=O)NC2CCCCC2)N(CC(OC)OC)C(=O)Cc2c[nH]c3ccccc23)cc1OC (stereo not drawn) shows CC50 at 72 h equal to 54.5

The compound listed as COc1cc(C(C(=O)NC2CCCCC2)N(C(=O)c2cc3ccccc3[nH]2)c2ccc(C(C)C)cc2)cc(OC)c1OC (stereo not drawn) shows CC50 at 72 h equal to 19.4

Data provenance: ChEMBL document CHEMBL4680152
